# System: SK-MEL-5 melanoma
# Test Protocol: NCI-60 one-dose screen, 48 h
# Condition Description: 10 µM unless noted
This is part of a sample that, as a whole, favours compounds with a hit. Of some 83,000 tested, about 20% had one in any assay. The source made the active and inactive calls. Rule for the calls: active = growth percent below 10; inactive = the rest.
Output constraint: value belongs to active, inactive

input: I'd appreciate the recorded outcome for N#CC1=C(N)Oc2c(sc3c(Br)cccc23)C1c1ccc([N+](=O)[O-])cc1 (stereo not given) from this test.
output: active

input: Identify the outcome logged in this assay for the molecule shown: CCOC(=O)Cn1c(C)c(/C=N/NC(=O)c2cc3c(ccc4ccccc43)o2)c2ccccc21
output: active

input: Call for entry OC(c1ccccc1)C(NC(Cc1ccccc1)c1ccccc1)c1ccccc1 (stereo not given) :
output: inactive

input: Write down the call the test reported for this molecule. Item: Cc1cc(O)c(C2=NN(c3ccc(S(N)(=O)=O)cc3)C(/C=C/c3ccccc3)C2)cc1Cl (stereo not given)
output: inactive

input: Can you look up the reported call for O=C(CS(=O)c1oc(-c2cccs2)nc1S(=O)(=O)c1ccc(Br)cc1)c1ccccc1 (stereo not given) for me?
output: inactive

New cases:
input: What is the recorded call for this molecule in the test? O=c1ccc(N=Nc2ccccc2)ccc1Cl
output: inactive

input: Just curious, what result did Cc1ccc(S(=O)(=O)N/N=C/C2(c3ccccc3)CC2)cc1 get here?
output: inactive

input: Hi, do you know how CCOC(=O)c1cn2ncnc(Oc3ccc(NC(=O)NCCN4CCOCC4)c(Cl)c3)c2c1C came out in this test?
output: inactive

input: State the result this test recorded for O=C(O)C(c1ccccc1)N1C(=O)CSC1=S (stereo not given) .
output: inactive

input: Check the results log: what was the call for Cc1ccc2c(-c3cc(-c4ccccc4)nc(N)c3C#N)cc(=O)oc2c1 ?
output: inactive

----------
# System: DU-145 prostate
# Test Protocol: NCI-60 one-dose screen, 48 h (100 = growth as untreated, 0 = no growth, -100 = all killed)
# Condition Description: 10 µM unless noted
Compounds without any hit were thinned out: in the full panel of roughly 83,000, 20% have a hit.
Tick criterion met if growth is 30% or greater. Tick criterion not met if growth is less than 30%.

input: Could you please find out whether CNCCCNc1nc2ccccc2c2c(=O)c3cc(F)ccc3sc12 has growth that meets 30% or exceeds it?
output: criterion not met

Continuing:
input: Reported growth reaches at least 30% for COc1ccc2[nH]c(-c3ccccc3)c(/C=C(\C#N)S(=O)(=O)c3ccccc3)c2c1 ?
output: criterion met

input: Given the entry NC1CCN(c2nc(Nc3cccc(C(F)(F)F)c3)c3c(=O)[nH]ccc3n2)CC1 , answer whether its growth meets or surpasses 30%.
output: criterion not met

input: Assess whether reported growth for COc1ccc(CN2c3ccccc3CCc3ccccc32)cc1F sits at 30% or higher.
output: criterion not met

----------
The following compounds are shown together with reported growth values.
# System: NCI-H226 lung
# Test Protocol: NCI-60 one-dose screen, 48 h (100 = growth as untreated, 0 = no growth, -100 = all killed)
# Condition Description: 10 µM unless noted
Compounds without any hit were thinned out: in the full panel of roughly 83,000, 20% have a hit. Calls of active or inactive are those of the source. The calls were made as follows: active = growth percent below 10; inactive = the rest.

input: Tell me the measured growth of CN(C)CCS(=O)(=O)Nc1cc(-c2ccc3ncc(C#N)c(Nc4ccc(F)c(Cl)c4)c3c2)cnc1Cl , please.
output: -15.2% (active)

input: growth for C=C(C)C1CCC2(C)OC2C1 (stereo not given) ?
output: 98.8% (inactive)

input: Fill in the blank: the reported growth of NC(=O)Nc1ccc2ncnc(Nc3ccc(Cl)cc3)c2c1 is ____.
output: 99.8% (inactive)

Next:
input: GET /values?readout=growth&item= Cn1cc(C(=O)c2nc(-c3cn(C)c4ccc(F)cc34)no2)c2cc(F)ccc21
output: 89.1% (inactive)
